# Study target: Calmodulin-1 (Homo sapiens)
# Assay: calcium-bound CALM1 binders on microarrays, profiling panel, artefact control for SMM control-protein annotation, biochemical, small-molecule microarray, Cy5-labelled CALM1, plus calcium (AID 1112);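 note: score merges spot fluorescence with signal to noise from triplicate slides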
# Conditions used: Cy5-CALM1 binding fluorescence, higher = more signal
Test readout: composite z-score

{"columns": ["Compound", "Measured number"],
 "data": [
  ["O=C(NCc1ccccc1)[C@@H]1c2ccccc2C(=O)N(Cc2ccccc2C(F)(F)F)[C@H]1c1ccc(CO)cc1", -0.317],
  ["CCCC[C@@H]1C[C@H]1[C@@H](NC(=O)Cc1ccccc1)c1ccc(-c2ccccc2)cc1", 0.588],
  ["O=C1N(Cc2ccccc2)Cc2ccccc2[C@@H]2OC(c3ccc(OCCCO)cc3)=N[C@]12CCS(=O)(=O)c1ccccc1", 0.264],
  ["O=C(N1CCCCC1)[C@@]1(CCS(=O)(=O)c2ccccc2)COC(c2ccc(OCCCO)cc2)=N1", -0.438],
  ["COCCOC(=O)N1C(=O)[C@@]2(c3cc(C#CC4=CCCCC4)ccc31)[C@H](c1ccccc1OCCO)N1[C@H](c3ccccc3)[C@H](c3ccccc3)OC(=O)[C@H]1[C@@H]2C(=O)N1CCCCCCC1", 0.258],
  ["O=C1NC(=O)C2C1C=CC(C(O)CCc1ccccc1)N2Nc1ccc(Cl)cc1Cl (stereo unspecified)", 0.819],
  ["O=C1NC(=O)C2C1C=CC(C(O)c1c(F)cccc1Cl)N2Nc1ccc(Cl)cc1Cl (stereo unspecified)", 1.01],
  ["COc1ccc(C(O)C2C=CC3C(=O)N(c4ccccc4)C(=O)C3N2Nc2ccc([N+](=O)[O-])cc2)cc1 (stereo unspecified)", 0.622],
  ["C=C(CCCC)/C(=C/C[C@@H](OC(=O)c1ccncc1)c1ccccc1OCCO)c1cnc2ccccc2c1", -0.759],
  ["CC1CC/C=C\\[C@H]2OC34C=CCN(C(C)C)C(=O)[C@H]3N(CCCCCCO)C(=O)[C@@H]4C2C(=O)O1 (stereo partly specified)", 0.571],
  ["C=C(C(=O)CC[C@@H](OC(C)=O)c1ccc(CO)o1)C(C)C", -0.89]
]}

* * *

# Assay: binders of probe aFGF10 on microarray, primary screen, stem cell growth factor project, biochemical, small-molecule microarray, fluorescence 635/667 (AID 1071);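 note: score merges 667 nm spot intensity and signal to noise from triplicate slides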
# Conditions used: higher = more signal
Kindly return Met if reported composite z-score is no lower than 0.8; return Not met if it is lower.

{"columns": ["Compound", "Answer label"],
 "data": [
  ["C[N+](C)(C)CCCCCCNC(=O)[C@H]1C[C@H]2C(=O)NCC(=O)N2[C@H]1c1ccc(O)cc1", "Not met"],
  ["COc1cc(CO)cc(I)c1O[C@H]1C=C(C(=O)NCCO)C[C@@H](NCc2ccc(F)cc2)[C@@H]1O", "Met"],
  ["[N-]=[N+]=Nc1ccccc1[C@H]1OC(c2ccc(OCCCO)cc2)=N[C@@]1(CCS(=O)(=O)c1ccccc1)C(=O)NCCN1CCOCC1", "Met"],
  ["COc1ccccc1CN1C(=O)c2ccccc2[C@](Cc2ccccc2I)(C(=O)NCC(F)(F)F)[C@@H]1c1ccc(CO)cc1", "Met"],
  ["CN1C(=O)C2C=CC(C(O)c3ccc(F)cc3)N(Nc3ccccc3)C2C1=O (stereo unspecified)", "Not met"],
  ["COC(=O)[C@@]1(Cc2ccccc2)[C@@H]2C(=CC(=O)[C@H]2CC(=O)C(=O)N(C)C)CN1C(=O)c1ccccc1", "Met"]
]}

* * *

# Study target: Alpha-bungarotoxin (Bungarus multicinctus) (UniProt P60615)
# Sequence (P60615 whole entry, looked up): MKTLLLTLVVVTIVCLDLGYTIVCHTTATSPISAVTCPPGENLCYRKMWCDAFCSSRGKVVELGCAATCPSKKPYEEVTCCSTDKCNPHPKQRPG
# Assay: alpha-bungarotoxin binders on microarray, profiling panel, artefact control for SMM control protein annotation, biochemical, small-molecule microarray, Alexa647 label, 635/667 nm fluorescence (AID 1117)
# Conditions used: alpha-BTX-A647 binding fluorescence, higher = more signal
List of composite z-score values.

{"columns": ["Compound", "Study target", "composite z-score"],
 "data": [
  ["[N-]=[N+]=Nc1ccccc1[C@H]1OC(c2ccc(OCCCO)cc2)=N[C@@]1(Cc1ccccc1)C(=O)N1CCCCC1", "Alpha-bungarotoxin (Bungarus multicinctus) (UniProt P60615)", 1.53],
  ["C=CC[C@]1(C(=O)O)COC(c2ccc(OCCCO)cc2)=N1", "Alpha-bungarotoxin (Bungarus multicinctus) (UniProt P60615)", 0.291],
  ["COC(=O)c1c2oc(c1C(=O)OC)C(=O)N(C)Cc1cn(nn1)C[C@H](Cc1ccccc1)NC(=O)N[C@H](CO)CC2", "Alpha-bungarotoxin (Bungarus multicinctus) (UniProt P60615)", -0.277],
  ["CCOC(=O)C[C@H]1[C@H](OC(=O)c2ccccc2-c2ccccc2)[C@@H](NC(=O)c2ccc(-c3ccccc3)cc2)c2cc(OCCCO)ccc2N1C(=O)c1ccc2ccccc2n1", "Alpha-bungarotoxin (Bungarus multicinctus) (UniProt P60615)", 1.86],
  ["COc1ccc(CN(C2=CC[C@@]3(C(N)=O)C(=O)C(Cl)=C(Cl)C(=O)[C@@]3(C#N)C2)S(=O)(=O)c2ccc(Br)cc2)cc1", "Alpha-bungarotoxin (Bungarus multicinctus) (UniProt P60615)", -0.181],
  ["CC1CC/C=C\\[C@H]2OC34C=CCN(C(C)C)C(=O)[C@H]3N(CCCCCCO)C(=O)[C@@H]4C2C(=O)O1 (stereo partly specified)", "Alpha-bungarotoxin (Bungarus multicinctus) (UniProt P60615)", -0.706],
  ["O=C1N(Cc2ccccc2)c2ccccc2[C@@H]2OC(c3ccc(OCCCO)cc3)=N[C@]12Cc1ccccc1", "Alpha-bungarotoxin (Bungarus multicinctus) (UniProt P60615)", 0.807],
  ["CCCCCCc1nc(C2CC2)cc2c1[Si](C(C)C)(C(C)C)OC2", "Alpha-bungarotoxin (Bungarus multicinctus) (UniProt P60615)", -0.221],
  ["CO[C@]12C=C(Br)[C@@H](C[C@@H]1c1cccc(C)c1)[C@@]1(CO1)C2=O", "Alpha-bungarotoxin (Bungarus multicinctus) (UniProt P60615)", -0.157],
  ["COC(=O)c1cn(C[C@@H](Cc2ccccc2)NC(=O)N[C@H](CO)CCc2oc(C(C)=O)c(C(=O)OC)c2C(=O)OC)nn1", "Alpha-bungarotoxin (Bungarus multicinctus) (UniProt P60615)", 0.177],
  ["O=C1C=C(c2ccccc2)C(=O)c2ccc([C@H]3Oc4ccccc4S(=O)(=O)N4CCC[C@@H]34)cc21", "Alpha-bungarotoxin (Bungarus multicinctus) (UniProt P60615)", -0.0257]
]}

* * *

# Study target: Torsin-1A (Homo sapiens) (UniProt O14656)
# Sequence (O14656 whole entry, looked up): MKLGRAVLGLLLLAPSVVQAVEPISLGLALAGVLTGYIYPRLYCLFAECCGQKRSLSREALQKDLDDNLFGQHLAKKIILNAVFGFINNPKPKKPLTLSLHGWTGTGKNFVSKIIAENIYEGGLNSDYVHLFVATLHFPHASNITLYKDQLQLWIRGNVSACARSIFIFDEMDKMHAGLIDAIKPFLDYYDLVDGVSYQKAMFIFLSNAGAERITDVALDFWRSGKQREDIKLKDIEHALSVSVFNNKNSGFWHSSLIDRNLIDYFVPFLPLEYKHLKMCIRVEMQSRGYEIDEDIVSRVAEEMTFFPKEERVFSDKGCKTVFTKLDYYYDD
# Assay: small-molecule binders of mutant TOR1A in lysate, primary screen, cell lysate, small-molecule microarray, COS7 lysate, 635/667 nm fluorescence (AID 1150);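 note: score pools 667 nm emission and signal to noise measuring lysate protein binding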
# Conditions used: COS7 hTOR1A mutant lysate, 635 nm fluorescence, higher = more signal

{"columns": ["Molecule", "composite z-score"],
 "data": [
  ["[N-]=[N+]=Nc1ccccc1[C@H]1OC(c2ccc(OCCCO)cc2)=N[C@@]1(Cc1ccccc1)C(=O)N1CCCCC1", 0.373],
  ["COCCOC(=O)N1C(=O)[C@@]2(c3cc(C#CCCO)ccc31)[C@H](c1ccccc1OCCO)N1[C@H](c3ccccc3)[C@H](c3ccccc3)OC(=O)[C@H]1[C@@H]2C(=O)Nc1nc2ccccc2s1", 0.568],
  ["CC(CO)N1C(=O)[C@@H]2[C@H]3C(=O)OCC=C[C@H]3OC23C=CCN(CCN2CCOCC2)C(=O)[C@@H]13 (stereo not given in full)", -0.475],
  ["COCC1=C2[C@@H](CCc3ccccc3)OB(O)C[C@@H]2[C@@H]2C(=O)C=CC(=O)[C@@H]2C1", 0.292],
  ["CCOC(=O)C1=CC[C@@H](c2ccc(OCc3ccccc3)c(OC)c2)N(S(=O)(=O)c2ccc(C)cc2)[C@H]1c1ccc(SC)cc1", 1.4],
  ["C=C[C@@H](COC(C)=O)N(C(=O)OC(C)(C)C)S(=O)(=O)c1ccc(Br)cc1", 0.559],
  ["CN(C)C(=O)[C@@]1(CCS(=O)(=O)c2ccccc2)N=C(c2ccc(OCCCO)cc2)O[C@H]1c1ccccc1", 0.548],
  ["[N-]=[N+]=NCc1ccccc1[C@H]1OC(c2ccc(OCCCO)cc2)=N[C@@]1(CCS(=O)(=O)c1ccccc1)C(=O)N1CCCCC1", 1.28],
  ["O=C1O[C@H](c2ccccc2)[C@H](c2ccccc2)N2[C@H]1[C@@H](C(=O)NC[C@H](O)c1ccccc1)[C@]1(C(=O)Nc3ccc(C#CCCO)cc31)[C@H]2c1ccc(OCCO)cc1", 0.38],
  ["CN1C(=O)C2C=CC(C(O)c3cccc(O)c3)N(Nc3ccccc3)C2C1=O (stereo not given)", 0.548]
]}

* * *

List of z-score values.
# Assay: basal 3T3-L1 adipocyte mitochondrial potential changes, profiling panel, cell-based, JC-1 fluorescence, 3T3-L1 adipocytes, 24 h, 100 nL compound (AID 1168); note: test concentration not given here
# Conditions used: JC-1 mitochondrial fluorescence, higher = more signal, called active from +8 up or from −8 down

{"columns": ["Molecule", "z-score"],
 "data": [
  ["C#CCN([C@@H](Cc1ccc(O)cc1)C(=O)OC)[C@@H](/C=C/C1CC1)[C@H](O)Cc1ccccc1", -0.0474],
  ["CC(=O)NCCCC[C@@H]1NC(=O)[C@@H]2C[C@H](C(=O)NCCCC[N+](C)(C)C)[C@H](c3ccc(O)cc3)N2C1=O", -0.152],
  ["COCCOC(=O)N1C(=O)[C@@]2(c3cc(C#CC4=CCCCC4)ccc31)[C@H](c1ccc(O)cc1)N1[C@H](c3ccccc3)[C@H](c3ccccc3)OC(=O)[C@H]1[C@@H]2C(=O)N1CCN(c2ncccn2)CC1", 1.87],
  ["O=C(N1CCCCC1)[C@@]1(CCS(=O)(=O)c2ccccc2)COC(c2ccc(OCCCO)cc2)=N1", -0.328],
  ["COCCCNC(=O)[C@]1(CCS(=O)(=O)c2ccccc2)N=C(c2ccc(OCCCO)cc2)O[C@@H]1c1ccccc1N=[N+]=[N-]", -0.594],
  ["OCCCC1=CC(c2ccc(CN3CCCC3)cc2)N(Cc2sc3ccccc3c2Cl)CC1 (stereo not drawn)", 0.0544],
  ["NC(=O)NCC#Cc1ccc2c(c1)[C@]1(C(=O)N2)[C@H](C(=O)O)[C@H]2C(=O)O[C@H](c3ccccc3)[C@H](c3ccccc3)N2[C@@H]1c1ccc(OCCO)cc1", -0.483],
  ["C=CC1c2cc(O)c(OC)cc2CCN1Cc1cc2c(cc1Br)OCO2 (stereo not drawn)", -0.196],
  ["COCCOC(=O)N1C(=O)[C@@]2(c3cc(C#Cc4ccc(OC)cc4)ccc31)[C@H](C(=O)Nc1nc3ccccc3s1)[C@H]1C(=O)O[C@H](c3ccccc3)[C@H](c3ccccc3)N1[C@@H]2c1ccc(OCCO)cc1", 2.92],
  ["C=C(/C(=C/C[C@H](OC(C)=O)c1cccc(OCCO)c1)c1cnc2ccccc2c1)C(C)C", 0.224],
  ["CCCCCCCCCCC(O)C1C=CC2C(=O)N(C)C(=O)C2N1Nc1ccc([N+](=O)[O-])cc1[N+](=O)[O-] (stereo not drawn)", -1.21],
  ["CC(C)[Si](C#C[Si](C(C)C)(C(C)C)C(C)C)(O[C@H](C)c1cn([C@H](CO)Cc2ccccc2)nn1)C(C)C", 0.727],
  ["O=C1c2ccccc2[C@](Cc2ccccc2I)(C(=O)NCC(F)(F)F)[C@H](c2ccc(CO)cc2)N1C1CCCCC1", 0.238],
  ["CC(C)N1C(=O)C[C@@](C(=O)NCCCN(C)C)(c2ccc([N+](=O)[O-])cc2)[C@H]1c1ccc(CO)cc1", -1.18],
  ["CCCCCCc1nc(-c2cc(C)c(OC)c(C)c2)c(C)c2c1[Si](C(C)C)(C(C)C)OC2", 0.354],
  ["[N-]=[N+]=Nc1ccccc1[C@H]1OC(c2ccc(OCCCO)cc2)=N[C@@]1(CCS(=O)(=O)c1ccccc1)C(=O)NCCN1CCOCC1", -0.374],
  ["CCOC(=O)c1ccc(NC(=O)O[C@H]2[C@H](OC(=O)Nc3ccc4c(c3)OCO4)[C@@H](OC(=O)Nc3ccc4c(c3)OCO4)[C@@H](OC)O[C@@H]2CO)cc1", 0.463],
  ["CCC[C@@H]1C[C@@]1(CCC)[C@@H](NC(=O)OCc1ccccc1)c1ccc(-c2ccccc2)cc1", 0.258],
  ["OCC1CC(c2ccccc2)=NO1 (stereo not drawn)", -0.765],
  ["C=C(/C(=C/C[C@H](OC(=O)c1ccncc1)c1ccc(CO)o1)c1cc(C(=O)OC)ccc1OC)C(C)C", -1.63],
  ["COCCOC(=O)N1C(=O)[C@@]2(c3cc(C#CC4=CCCCC4)ccc31)[C@H](C(=O)N1CCCCCCC1)[C@H]1C(=O)O[C@H](c3ccccc3)[C@H](c3ccccc3)N1[C@@H]2c1ccc(O)cc1", 1.02],
  ["CCOC(=O)C1=CC[C@@H](c2cccc(Cl)c2)N(S(=O)(=O)c2ccc(C)cc2)C1", 1.34],
  ["C=CCOC(=O)[C@H]1[C@@H]2C(=O)O[C@@H](c3ccccc3)[C@@H](c3ccccc3)N2[C@@H](c2ccc(OCCOC(=O)[C@@H]3C[C@@H]4C(=O)N[C@@H](CCCCN(C)C)C(=O)N4[C@@H]3c3ccc(O)cc3)cc2)[C@]12C(=O)Nc1ccccc12", 0.0411]
]}
